- System: CCRIS mutagenicity, Ames/micronucleus/aberration tests
- ASSAY_SUMMARY: CCRIS mutagenicity studies
- ASSAY_CONDITIONS: Test System: AMES SALMONELLA TYPHIMURIUM; Strain/Indicator: TA1538; Metabolic Activation: RAT, LIVER, S-9, AROCLOR 1254; Method: STANDARD PLATE
Calls of active or inactive are those of the source. How the calls were made is not given here.
PROPERTY_LABEL: mutagenic call

Worked cases, mutagenic call given:
Oc1ccc(O)c2c(O)c3ccccc3c(O)c12 = inactive; negative
CC/C(=C(/CC)c1ccc(O)cc1)c1ccc(O)cc1 = inactive; negative
Cc1cc2c(c3ccc4ccccc4c13)CCC2=O = active; positive
CC(=O)Nc1ccc(O)cc1 = inactive; negative
CC1=C(C)C2(C3=CC(=O)C=CC3=Nc3ccc(O)cc32)C(C)=C(C)C1=O = inactive; negative
OCCNc1ccc(N=Nc2ccc(NCCO)cc2)cc1 = active; positive

Continue with the next molecule.
The reported value for C/C=C/c1cc(OC)c(OC)cc1OC in terms of mutagenic call is inactive; negative
